- Test system: iCell endothelial cells (human iPSC-derived ECs)
- Test Protocol: High-content imaging cytotoxicity in iCell endothelial cells, 24 h
- Format: cell-based
- Study Conditions: Homo sapiens, Endothelial cell, iPSC-EC, 24 hr, 100.00 µM, 0.00 µM control = 100.00, read-out: endo.mito.24hr
Where a name gives a salt, the structure may show the parent alone.
The threshold is inclusive: activity at 100 µM of exactly 60% counts as True; values below receive False.

Compound: COc1ccc(-c2ccc(Cl)cc2)cc1 [4'-OMe PCB3]
Test Target: iCell endothelial cells (human iPSC-derived ECs)
Assigned Label: True
--
Compound: Oc1ccc(O)c(-c2ccc(Cl)cc2)c1 [2',5'-DiOH PCB3]
Test Target: iCell endothelial cells (human iPSC-derived ECs)
Assigned Label: False
--
Compound: O=S(=O)(O)Oc1cccc(-c2ccc(Cl)cc2)c1 [3'-yl PCB 3 sulfate]
Test Target: iCell endothelial cells (human iPSC-derived ECs)
Assigned Label: True
--
Compound: Clc1cccc(-c2cccc(Cl)c2)c1 [PCB11]
Test Target: iCell endothelial cells (human iPSC-derived ECs)
Assigned Label: True
--
Compound: Clc1ccc(Cl)c(-c2cc(Cl)ccc2Cl)c1 [PCB52]
Test Target: iCell endothelial cells (human iPSC-derived ECs)
Assigned Label: True
--
Compound: Oc1cc(Cl)c(-c2cc(Cl)ccc2Cl)cc1Cl [4-OH PCB52]
Test Target: iCell endothelial cells (human iPSC-derived ECs)
Assigned Label: False
--
Compound: O=S(=O)(O)Oc1ccc(-c2ccc(Cl)cc2)cc1 [4'-yl PCB 3 sulfate]
Test Target: iCell endothelial cells (human iPSC-derived ECs)
Assigned Label: True
--
Compound: Oc1cccc(-c2ccc(Cl)cc2)c1 [3'-OH PCB3]
Test Target: iCell endothelial cells (human iPSC-derived ECs)
Assigned Label: False
--
Compound: O=C1C=CC(=O)C(c2ccc(Cl)cc2)=C1 [4-Cl-BQ, 2-(4-Chlorophenyl)benzo-2,5-quinone]
Test Target: iCell endothelial cells (human iPSC-derived ECs)
Assigned Label: False

###

- Test system: iCell cardiomyocytes (human iPSC-derived cardiomyocytes)
- Test Protocol: High-content imaging of cytotoxicity and mitochondrial integrity in iPSC-CMs
- Format: cell-based
- Study Conditions: Homo sapiens, iPSC-CM, 24 h, iPSC-CM; read-out: cm.mii.24hrs POD
Counter-ions that a name gives are not always drawn.
The threshold is inclusive: minimal effective concentration of exactly 50 µM counts as Satisfied; values below receive Not satisfied.

Molecule: COc1ccc(-c2ccc(Cl)cc2)cc1
Test Target: iCell cardiomyocytes (human iPSC-derived cardiomyocytes)
Assigned Label: Satisfied
--
Molecule: O=C1C=CC(=O)C(c2ccc(Cl)cc2)=C1
Test Target: iCell cardiomyocytes (human iPSC-derived cardiomyocytes)
Assigned Label: Not satisfied
--
Molecule: Oc1cccc(-c2ccc(Cl)cc2)c1
Test Target: iCell cardiomyocytes (human iPSC-derived cardiomyocytes)
Assigned Label: Not satisfied
--
Molecule: Oc1ccc(-c2ccc(Cl)cc2)cc1
Test Target: iCell cardiomyocytes (human iPSC-derived cardiomyocytes)
Assigned Label: Not satisfied
--
Molecule: O=S(=O)(O)Oc1cccc(-c2ccc(Cl)cc2)c1 [3'-yl PCB 3 sulfate]
Test Target: iCell cardiomyocytes (human iPSC-derived cardiomyocytes)
Assigned Label: Satisfied

###

- Test system: HUVECs
- Test Protocol: High-content imaging cytotoxicity in HUVECs, 24 h
- Assay type: cell-based, human
- Study Conditions: Homo sapiens, HUVEC, 24 h, HUVECs, 24 hr, 10.00 µM; 0.00 µM = 100.00; read-out: huvec.mitoint.24hr
Where a name gives a salt, the structure may show the parent alone.
Hi! Just check whether activity at 10 µM is below 90%. Below gives criterion met, equal or above gives criterion not met.

Compound: Oc1cc(Cl)c(-c2cc(Cl)ccc2Cl)cc1Cl [4-OH PCB52]
Assigned Label: criterion met
//
Compound: COc1ccc(-c2cccc(Cl)c2)cc1Cl [4-OMe PCB11]
Assigned Label: criterion not met
//
Compound: O=S(=O)(O)Oc1ccc(-c2cccc(Cl)c2)cc1Cl [4-yl PCB 11 sulfate]
Assigned Label: criterion not met
//
Compound: Oc1ccccc1-c1ccc(Cl)cc1 [2'-OH PCB3]
Assigned Label: criterion not met
//
Compound: Oc1cc(Cl)cc(-c2cccc(Cl)c2)c1 [5-OH PCB 11]
Assigned Label: criterion met
//
Compound: Clc1ccc(Cl)c(-c2cc(Cl)ccc2Cl)c1 [PCB52]
Assigned Label: criterion met
//
Compound: O=C1C=CC(=O)C(c2ccc(Cl)cc2)=C1 [4-Cl-BQ, 2-(4-Chlorophenyl)benzo-2,5-quinone]
Assigned Label: criterion met

###

- System: iCell endothelial cells (human iPSC-derived ECs)
- Test Protocol: Tube formation (tubulogenesis) assay in iCell endothelial cells, 18 h
- Type: cell-based
- Study Conditions: Homo sapiens, Endothelial cell, iPSC-EC tube formation, 18 hr, top concentration 100.00 µM, read-out: endo.ttl.18hr POD
Counter-ions that a name gives are not always drawn.

Molecule: COc1ccc(-c2ccc(Cl)cc2)cc1
minimal effective concentration: 7.16 µM
--
Molecule: Oc1ccc(-c2ccc(Cl)cc2)cc1
minimal effective concentration: 1.12 µM
--
Molecule: O=S(=O)(O)Oc1cccc(-c2ccc(Cl)cc2)c1 [3'-yl PCB 3 sulfate]
minimal effective concentration: 8.75 µM
--
Molecule: Oc1cc(Cl)cc(-c2cccc(Cl)c2)c1
minimal effective concentration: 7.34 µM
--
Molecule: O=C1C=CC(=O)C(c2ccc(Cl)cc2)=C1
minimal effective concentration: 11.8 µM

###

- System: iCell cardiomyocytes (human iPSC-derived cardiomyocytes)
- Test Protocol: Intracellular Ca2+ flux / beating parameters in iCell cardiomyocytes (FLIPR tetra), 90 min or 24 h
- Format: cell-based
- Study Conditions: Homo sapiens, Cardiomyocyte, 1.5 h, 1.00 µM; 0.00 µM = 100.00; read-out: cm.spacing.cv.90min
Structures can show the parent of a compound that is named as a salt.
Property Name: activity at 1 µM (%)

Compound: Oc1ccccc1-c1ccc(Cl)cc1
Test Target: iCell cardiomyocytes (human iPSC-derived cardiomyocytes)
Endpoint Result: 106
//
Compound: Clc1ccc(-c2ccccc2)cc1
Test Target: iCell cardiomyocytes (human iPSC-derived cardiomyocytes)
Endpoint Result: 130
//
Compound: O=S(=O)(O)Oc1cc(-c2ccccc2)ccc1Cl [3-yl PCB 3 sulfate]
Test Target: iCell cardiomyocytes (human iPSC-derived cardiomyocytes)
Endpoint Result: 102
//
Compound: Clc1cccc(-c2cccc(Cl)c2)c1
Test Target: iCell cardiomyocytes (human iPSC-derived cardiomyocytes)
Endpoint Result: 107

###

- Tested on: iCell endothelial cells (human iPSC-derived ECs)
- Test Protocol: Tube formation (tubulogenesis) assay in iCell endothelial cells, 18 h
- Format: cell-based
- Study Conditions: Homo sapiens, Endothelial cell, iPSC-EC tube formation, 18 hr, 1.00 µM, 0.00 µM control = 100.00, read-out: endo.tlps.18hr
Where a name gives a salt, the structure may show the parent alone.
# activity at 1 µM annotations
Property Name: activity at 1 µM (%)

Molecule: Oc1ccc(-c2ccc(Cl)cc2)cc1 [4'-OH PCB3]
Endpoint Result: 73.5

Molecule: Clc1cccc(-c2cccc(Cl)c2)c1 [PCB11]
Endpoint Result: 125

Molecule: Clc1ccc(Cl)c(-c2cc(Cl)ccc2Cl)c1 [PCB52]
Endpoint Result: 132

Molecule: O=S(=O)(O)Oc1ccc(-c2ccc(Cl)cc2)cc1 [4'-yl PCB 3 sulfate]
Endpoint Result: 137

Molecule: Clc1ccc(-c2ccccc2)cc1 [PCB3]
Endpoint Result: 171

###

# endo.cyto.24hr annotations
- Tested on: iPSC-CMs, iPSC-ECs and HUVECs phenotypes
- Test Protocol: ToxPi 2.0 integration of POD values and physicochemical descriptors
- Parameters: species or system human
- Study Conditions: ToxPi-scaled (0-1) score; iPSC endothelial cells, 24 h
- Experimental: Phenotypic responses were quantitatively assessed using concentration–response modeling as detailed elsewhere ([Sirenko et al. 2017]). Briefly, phenotypic readouts were normalized to vehicle controls and fit to a four-parameter logistic model in R studio software (version 3.1.1; R Development Core Team). […] The ability of physicochemical properties to predict differences in PODs were evaluated by multiregression and mixed-effects modeling using R. […]
Counter-ions that a name gives are not always drawn.
Property Name: endo.cyto.24hr

Molecule: Oc1ccc(O)c(-c2ccc(Cl)cc2)c1 [2',5'-diOH-PCB 3, 4-Chloro-2′,5′-dihydroxybiphenyl]
Property Name: endo.cyto.24hr
Endpoint Result: 0.4719
--
Molecule: O=S(=O)(O)Oc1ccc(-c2ccc(Cl)cc2)cc1 [4'-PCB 3 sulfate]
Property Name: endo.cyto.24hr
Endpoint Result: 0
--
Molecule: O=S(=O)(O)Oc1ccc(-c2cccc(Cl)c2)cc1Cl [4-PCB 11 sulfate]
Property Name: endo.cyto.24hr
Endpoint Result: 0
--
Molecule: COc1ccc(-c2ccc(Cl)cc2)cc1
Property Name: endo.cyto.24hr
Endpoint Result: 0

###

- Tested on: HUVECs
- Test Protocol: Tube formation (tubulogenesis) assay in HUVECs, 18 h
- Format: cell-based, human
- Study Conditions: Homo sapiens, HUVEC, 18 h, HUVEC, tube formation ttl, read-out: POD huvec.ttl.18hr
- Protocol: Similar to the cultivation of iCell®-endothelial cells, HUVEC maintenance and experimentation are detailed elsewhere ([Iwata et al. 2017]). […] Tube formation assays were performed on Geltrex™ LDEV-free reduced growth factor basement membrane using both iCell®-endothelial cells and HUVECs in 384-well format exactly as detailed in Iwata et al. ([2017]). […] Images were analyzed with the angiogenesis module software within MetaXpress™ (Molecular Devices). […]
Structures can show the parent of a compound that is named as a salt.

Compound: Oc1ccc(O)c(-c2ccc(Cl)cc2)c1 [2',5'-diOH-PCB 3, 4-Chloro-2′,5′-dihydroxybiphenyl]
Test Target: HUVECs
minimal effective concentration, µM: 1.23
--
Compound: O=S(=O)(O)Oc1ccc(-c2cccc(Cl)c2)cc1Cl [4-PCB 11 sulfate]
Test Target: HUVECs
minimal effective concentration, µM: 100
--
Compound: Clc1ccc(Cl)c(-c2cc(Cl)ccc2Cl)c1 [PCB 52, 2,2′,5,5′-tetrachlorobiphenyl]
Test Target: HUVECs
minimal effective concentration, µM: 100
--
Compound: Oc1ccc(-c2ccc(Cl)cc2)cc1 [4'-OH-PCB 3]
Test Target: HUVECs
minimal effective concentration, µM: 5.16

Where do these numbers come from? They come from paper PMC7377239.
